Kindly supply the reported Intensity (%) values for the records listed here.
Target: T1, biotin-labelled EZH2 protein (UniProt Q15910 1-746, limits assumed, biotin label (EZ-link NHS-PEO4-Biotinylation kit))
T1 construct: Probe in solution (1 ug/ml) on the KDM2B peptide microarray; also called NHS-PEO4-Biotinylation-labelled EZH2 protein; recombinant protein
T1 sequence (Q15910 whole entry): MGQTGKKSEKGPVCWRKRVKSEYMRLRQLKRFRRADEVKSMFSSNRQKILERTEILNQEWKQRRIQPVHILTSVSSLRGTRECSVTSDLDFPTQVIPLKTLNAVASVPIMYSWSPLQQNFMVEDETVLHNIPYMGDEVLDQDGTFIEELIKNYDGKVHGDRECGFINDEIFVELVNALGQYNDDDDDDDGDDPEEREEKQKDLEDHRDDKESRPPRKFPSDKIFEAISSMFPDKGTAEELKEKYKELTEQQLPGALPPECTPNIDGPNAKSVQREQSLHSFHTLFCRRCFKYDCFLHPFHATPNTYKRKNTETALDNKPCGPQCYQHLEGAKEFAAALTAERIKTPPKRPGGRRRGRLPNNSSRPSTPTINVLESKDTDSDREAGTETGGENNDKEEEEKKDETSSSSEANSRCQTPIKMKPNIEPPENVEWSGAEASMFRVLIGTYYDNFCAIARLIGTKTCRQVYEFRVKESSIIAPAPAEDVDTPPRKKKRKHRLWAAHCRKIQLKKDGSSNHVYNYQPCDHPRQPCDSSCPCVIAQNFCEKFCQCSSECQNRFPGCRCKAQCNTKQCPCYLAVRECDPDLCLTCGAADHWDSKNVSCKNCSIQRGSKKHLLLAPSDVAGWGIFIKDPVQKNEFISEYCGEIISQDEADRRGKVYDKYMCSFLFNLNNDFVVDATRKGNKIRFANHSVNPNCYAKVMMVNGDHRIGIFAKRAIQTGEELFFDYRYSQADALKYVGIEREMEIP
Test: KDM2B peptide array probed with biotin-EZH2 1 ug/ml, SA-HRP/ECL;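 also: 100% is the highest background-corrected spot optical density on the membrane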;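 also: Background-corrected optical density of each spot on the membrane, given as percent of the brightest spot (100%), color developed for 5 minutes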
Answers are plain numbers, in %.

Observe how each entry below is paired with its result.
>>> test_result("RRKRRLPNKELSREL [peptide 188]")
0.8
>>> test_result("SPPKCIQMERHVIRP [peptide 207]")
0
>>> test_result("FGGPGRMKQSCIMRQ [peptide 128]")
0

Fill in Intensity (%) for each of the 4 binders listed.
1. HLKEKQTEATNAIAE [peptide 42]
2. LMSVKGCFTDFHIDF [peptide 47]
3. SWLEMEEEACDQQPQ [peptide 82]
4. YPFYYEMCWYVLERY [peptide 72]

Result string:
1: 2.03; 2: 100; 3: 0; 4: 0.04
